Where do these numbers come from? They come from PubChem BioAssay AID1159580.

Exercise: for every item that follows, state its recorded normalized growth.
protocol_text: chemical genetic growth profiling, strain panel (AID 1159580);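 note: tested at 20 µM; growth read once vehicle control cultures reached saturation at 30 °C; 1 = growth at the plate median or of vehicle wells; lower values mean less growth of the strain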
measurement_conditions: S. cerevisiae deletion strains, growth OD, locus YPL031C, strain PHO85, stronger effect = lower value
About 2,000 (36%) of roughly 5,500 compounds were called active. About 18% were inconclusive and are not listed. The list shows a part of the results.

Reported normalized growth, compound "COc1ccc(/C(C#N)=C2C=C/C(=N/O)C(Cl)=C\2)cc1" : ____
0.854 (inactive)

Give its normalized growth value. Item: CCOC(=O)C(O)(c1ccc(NC(=O)Nc2ccc(Cl)cc2)cc1)C(F)(F)F (stereo unspecified)
0.987 (inactive)

Please report the recorded normalized growth for "N#CC(C#N)=NNc1ccc(-n2ccc(C(F)(F)F)n2)cc1" .
0.273 (active)

Value lookup for normalized growth; key = "Cc1nc([N+](=O)[O-])cn1CC(=O)c1ccc(Cl)cc1"
0.949 (inactive)

Would you mind telling me what normalized growth value was observed for "N#CC(C#N)=NNc1cc(C(F)(F)F)ccc1OCC(F)(F)F" ?
0.703 (inactive)

What measured normalized growth goes with "N#C/C(=C\C=C\c1ccccc1)c1nc2ccccc2[nH]1" ?
0.824 (inactive)

Given "CC(/C=C/c1ccccc1)=N/OC(=O)c1ccccc1Cl" , state its recorded normalized growth.
0.909 (inactive)

What normalized growth value was documented for this compound, "Cc1c(Cl)cccc1N=C1SCC(=O)N1Cc1ccco1" ?
0.897 (inactive)

So what does the record say about normalized growth for "N#C/C(=N/Nc1ccc(Cl)cc1)C(N)=S" ?
0.207 (active)

May I ask what normalized growth has been recorded for "N#C/C(=N/Nc1ccc(C(F)(F)F)cc1)C(=O)C1CC1" ?
0.922 (inactive)

// query normalized growth value for entry "CN(NC(=S)Nc1cc(Cl)ccc1Cl)c1ccc(C(F)(F)F)cc1[N+](=O)[O-]"
0.937 (inactive)

Look up normalized growth: FC(F)(F)c1ccc(C2Sc3ccccc3N=C3c4ccccc4CC32)cc1 (stereo unspecified)
1.06 (inactive)

Form field: reported normalized growth of "Cc1c(NCN2C(=O)CCC2=O)cc2c(c1[N+](=O)[O-])C(C)(C)CC2(C)C"
0.899 (inactive)

Requested read-out: normalized growth. Entry: CCC1(c2ccccc2)OC(c2cc(Cl)cc(Cl)c2O)Nc2ccccc21 (stereo unspecified)
0.685 (inactive)

Query (compound): "COc1ccc(-c2cc(NS(=O)(=O)c3cccc(F)c3)n(-c3ccc(Cl)c(Cl)c3)n2)cc1" ; field requested: normalized growth
0.913 (inactive)

Fill in the blank: the reported normalized growth of "Cc1ccc(C(=O)Nc2ccc3ccccc3n2)cc1" is ____.
0.948 (inactive)
